System: Staphylococcus epidermidis TISTR2172
TEST: Disc diffusion, S. epidermidis
Type: cell-based
COND: 1 mg per disc, 6 mm disc, 37 °C, 18–24 h
PARAMETER MEASURED: Inhibition zone ± SD, S. epidermidis (mm)
Could you give me the number in mm? Just the number is fine.

Value lookup for Inhibition zone ± SD, S. epidermidis; key = C[C@H](CCC(=O)O)[C@H]1CC[C@H]2[C@@H]3[C@H](O)C[C@@H]4C[C@H](O)CC[C@]4(C)[C@H]3CC[C@]12C 11.8

What about this compound? CC(CCC(=O)[O-])C1CCC2C3C(O)CC4CC(O)CCC4(C)C3CCC12C.C[N+](C)(C)CCO (stereo not shown) [[UDCA][Z] (12)] 13.0

What about this compound? C[C@H](CCC(=O)O)[C@H]1CC[C@H]2[C@@H]3[C@@H](O)C[C@@H]4C[C@H](O)CC[C@]4(C)[C@H]3CC[C@]12C 9.6

What about this compound? C[C@H](CCC(=O)O)[C@H]1CC[C@H]2[C@@H]3CC[C@@H]4C[C@H](O)CC[C@]4(C)[C@H]3C[C@H](O)[C@]12C 13.5
